Molecular target: T1, human MSLN-hFc protein (Acro, Cat. No. MSN-H5253) (human, UniProt Q13421 296-580)
T1 construct: the method names the coated protein as human MSLN-hFc (Acro); also called human MSLN full-length protein
T1 sequence (Q13421 other isoform, or with tags, fused parts or gaps limits assumed): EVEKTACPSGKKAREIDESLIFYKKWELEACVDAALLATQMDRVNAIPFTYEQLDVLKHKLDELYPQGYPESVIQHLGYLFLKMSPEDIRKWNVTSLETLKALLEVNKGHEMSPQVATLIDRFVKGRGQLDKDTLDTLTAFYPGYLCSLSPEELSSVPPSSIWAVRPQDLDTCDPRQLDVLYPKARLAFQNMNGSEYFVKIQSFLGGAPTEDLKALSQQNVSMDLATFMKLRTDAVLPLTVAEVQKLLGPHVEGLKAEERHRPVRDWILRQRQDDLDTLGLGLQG
Test: ELISA on coated antigen, antibody 10 nM
Quantity measured: OD450 (OD450)
# value in OD450; strip the unit string

Field: example entries. Status: answers known.
Which value of OD450 has been reported for F7.33.24-H2 (scFv, not shown: small tags and cut ends, also called S009-F7.33.24 humanized antibody VH1 + VL2) scFv: EVQLVQSGAEVKKPGASVKVSCKASGYTFTSYWMHWVRQAPGQRLEWMGNVNPSNGGSNYNEKFKNRVTITVDKSASTAYMELSSLRSEDTAVYYCAPHYIGSRPGFAYWGQGTLVTVSSGGGGSGGGGSGGGGSDIVMTQTPLSLSVTPGQPASISCKASQNVGTNIAWYLQKPGQSPQALIYSASYRYSGVPDRFSGSGSGTDFTLKISRVEAEDVGVYYCQQYNSYPLTFGGGTKVEIK in the records?
2.07

Likewise for F7.33.24-H6 (scFv, not shown: small tags and cut ends, also called S009-F7.33.24 humanized antibody VH1a + VL3) scFv: EVQLVQSGAEVKKPGASVKVSCKASGYTFTSYWMHWVRQAPGQRLEWMGNVNPSSGGSNYNEKFKNRVTITVDKSASTAYMELSSLRSEDTAVYYCAPHYIGSRPGFAYWGQGTLVTVSSGGGGSGGGGSGGGGSDIVMTQTPLSLSVTPGQPASISCKASQNVGTNIAWYQQKPGQSPQALIYSASYRYSGVPDRFSGSGSGTDFTLKISRVEAEDVGVYYCQQYNSYPLTFGGGTKVEIK ?
2.36

Likewise for F7.33.24-H5 (scFv, not shown: small tags and cut ends, also called S009-F7.33.24 humanized antibody VH1a + VL2) scFv: EVQLVQSGAEVKKPGASVKVSCKASGYTFTSYWMHWVRQAPGQRLEWMGNVNPSSGGSNYNEKFKNRVTITVDKSASTAYMELSSLRSEDTAVYYCAPHYIGSRPGFAYWGQGTLVTVSSGGGGSGGGGSGGGGSDIVMTQTPLSLSVTPGQPASISCKASQNVGTNIAWYLQKPGQSPQALIYSASYRYSGVPDRFSGSGSGTDFTLKISRVEAEDVGVYYCQQYNSYPLTFGGGTKVEIK ?
1.91

New cases:
Which value of OD450 has been reported for F7.33.24-H8 (scFv, not shown: small tags and cut ends, also called S009-F7.33.24 humanized antibody VH2 + VL2) scFv: EVQLVQSGAEVKKPGASVKVSCKASGYTFTSYWMHWVRQAPGQGLEWMGNVNPSNGGSNYNEKFKNRVTITVDKSASTAYMELSSLRSEDTAVYYCAPHYIGSRPGFAYWGQGTLVTVSSGGGGSGGGGSGGGGSDIVMTQTPLSLSVTPGQPASISCKASQNVGTNIAWYLQKPGQSPQALIYSASYRYSGVPDRFSGSGSGTDFTLKISRVEAEDVGVYYCQQYNSYPLTFGGGTKVEIK in the records?
2.04
